Ref: the supplement of paper PMC11451515

# Test system: P12-Ichikawa
# assay: cell viability relative to DMSO control; higher = less cytotoxic
# condition-summary: RPMI 5 mM glucose + 10% FBS; 48 h; 0.0211 µM
readout: cell viability (%)
State the answer as a number, implicitly in %.

Dear colleague, I am looking for the recorded cell viability of the following compound: O=C(c1cncc(Br)c1)N1CCC(N2CCCC2)CC1
95.9

Consider the compound CCCN[C@H]1CCc2nc(N)sc2C1 and give its measured cell viability.
104

For NC(=O)c1cccc(-c2cc(Nc3ccc(OC(F)(F)F)cc3)ncn2)c1 , what is its reported cell viability?
94.2

Please report the recorded cell viability for Nc1ccc(C(=O)Nc2cccc(-c3nc(N4CCOCC4)c4oc5ncccc5c4n3)c2)cn1 .
114

// returns reported cell viability for input Nc1n[nH]c2nnc(-c3c(-c4ccccc4)nn4ccccc34)cc12
118

Dear colleague, I am looking for the recorded cell viability of the following compound: O=C(O)c1ccc(O)c2ncc(N3CCOCC3)cc12
92.8

Query: cell viability; subject: CCC(C)CCCCC(=O)N[C@@H](CCN)C(=O)NC(C(=O)N[C@H](CCN)C(=O)N[C@@H]1CCNC(=O)C([C@@H](C)O)NC(=O)[C@@H](CCN)NC(=O)[C@@H](CCN)NC(=O)[C@@H](CC(C)C)NC(=O)[C@H](Cc2ccccc2)NC(=O)[C@H](CCN)NC1=O)[C@@H](C)O (stereo partly drawn)
120

For C[C@]12CCC3c4ccc(O)cc4CCC3C1CCC2=O (stereo partly drawn) , what is its reported cell viability?
103

====

# System: NOMO1
# assay: cell viability relative to DMSO control; higher = less cytotoxic
# condition-summary: RPMI 5 mM glucose + 10% dialyzed FBS; 48 h; 0.0632 µM
Provide the recorded cell viability for the entries that follow.
Write down the numeric answer in % and omit the unit.

# lookup: cell viability of CCCOc1ccc(C(=O)OCCN(CC)CC)cc1N
120

Look up cell viability for this compound: COc1cc(NCc2ccc3nc(N)nc(N)c3c2C)cc(OC)c1OC
91

Any idea what its cell viability is? The compound is CCCCc1ccc2[nH]c(NC(=O)OC)nc2c1
101

Need cell viability, item CN(C)C/C=C/C(=O)Nc1ccc(C(=O)Nc2cccc(Nc3ncc(Cl)c(-c4c[nH]c5ccccc45)n3)c2)cc1
95

Request the reported cell viability associated with C=CC(=O)Nc1cccc(Sc2nc(Nc3ccc(N4CCN(C)CC4)cc3)ncc2Cl)c1
112

Look at this compound and give its reported cell viability. CN(C)CCCC1(c2ccc(F)cc2)OCc2cc(C#N)ccc21 (centres undefined)
90.4

Look up cell viability for this compound: OC(=O)\C1=C\N(C2CC2)C3=CC(=C(F)C=C3C1=O)N4CCNCC4
120

// returns reported cell viability for input C[S+](=O)([O-])Oc1ccc2c(NC(N)=O)c(C(=O)c3ccc(Cl)cc3Cl)oc2c1
119

Which cell viability is listed for COc1cc2c(cc1OC)[C@@H]1Cc3ccc(OC)c(OC)c3CN1CC2 ?
96.5

====

Task for the reader: assign each of the following molecules its reported cell viability.
# Test system: NOMO1
# assay: cell viability relative to DMSO control; higher = less cytotoxic
# condition-summary: RPMI 5 mM glucose + 10% dialyzed FBS; 48 h; 0.0632 µM
Expressed in %, but write only the number.

Which measured cell viability belongs to CN1C(=O)c2sccc2N(C)c2nc(Nc3ccc([S+](N)(=O)[O-])cc3)ncc21 , tested on NOMO1?
99

Find the measured cell viability: item Nc1n[nH]c2nnc(-c3c(-c4ccccc4)nn4ccccc34)cc12 , target or system NOMO1.
136

Please provide the recorded cell viability for CCCCCCNC(=O)N1\C=C(F)/C(=O)NC1=O , tested on NOMO1.
110

Field: cell viability (NOMO1). Entry: Cc1ccc(C(=O)Nc2cccc(C(F)(F)F)c2)cc1Nc1nc(-c2cccnc2)nc2c1cnn2C
90.7

Which cell viability is reported with NOMO1 for this entry: Cc1cn2cc(C(=O)N(C)CCO)cc(N[C@@H]3CCOc4cccc(C)c43)c2n1 ?
114

What value of cell viability on NOMO1 does CC(=O)N(C)C1(c2ccccc2)CCN(CCC[C@]2(c3ccc(Cl)c(Cl)c3)CCCN(C(=O)c3ccccc3)C2)CC1 have?
106

Provide value of cell viability for this record tested with NOMO1: OC[C@H]1O[C@H](C[C@@H]1O)N2/C=C(C(=O)NC2=O)/C(F)(F)F
103

Quick check: cell viability on NOMO1, item C[C@@H]1CC[C@@]2(CC[C@]3(C)\C(=C/C[C@@H]4[C@@]5(C)CC[C@H](O)C(C)(C)[C@@H]5CC[C@@]34C)[C@@H]2[C@H]1C)C(O)=O ?
124

Which measured cell viability belongs to COc1ccccc1[C@H](c1cccc2ccccc12)[C@@](C)(C#N)C(=O)N1CCC(c2cccc(C(F)(F)F)c2)CC1 , tested on NOMO1?
104

Please tell me: cell viability of Cc1cc(Nc2cc(N3CCN(C)CC3)nc(/C=C/c3ccccc3)n2)n[nH]1 , system NOMO1?
110

Tell me reported cell viability for O=C(O)CCCCCC(=O)NN=C1CCCC1 , tested with NOMO1.
105

Identify the measured cell viability of O=C(c1cncc(Br)c1)N1CCC(N2CCCC2)CC1 for NOMO1.
105

Form field - read-out: cell viability; system: NOMO1; submitted item: CCNC(=O)Nc1ccc(Oc2ncnc(N)c2/C=N/OC)cc1Cl
114

Please provide the recorded cell viability for COc1ccc(F)c(F)c1C(=O)c1cnc(NC2CCN([S+](C)(=O)[O-])CC2)nc1N , tested on NOMO1.
107

Lab note: need cell viability for C[C@]12CCC3c4ccc(O)cc4CCC3C1CCC2=O (stereo not given in full) on NOMO1, anyone have it?
96.4

# get_value(readout= cell viability, system= NOMO1) for NC(=O)c1cccc(-c2cc(Nc3ccc(OC(F)(F)F)cc3)ncn2)c1
93.3

Request body: readout cell viability, system NOMO1, query CNc1nc(-c2ccc3c(N)n[nH]c3c2)cc(N2C[C@@H](C(=O)NC3CCCCC3)CC[C@H]2C)n1 . Return the value.
90.2

Notebook: pull reported cell viability for NOMO1, entry CC[C@H]1OC(=O)[C@H](C)[C@@H](O[C@H]2C[C@@](C)(OC)[C@@H](O)[C@H](C)O2)[C@H](C)[C@@H](O[C@@H]2O[C@H](C)C[C@H](N(C)C)[C@H]2O)[C@](C)(OC)C[C@@H](C)C(=O)[C@H](C)[C@@H](O)[C@]1(C)O
93.8

Request body: readout cell viability, system NOMO1, query CC(C)C1CCC(C(=O)N[C@H](Cc2ccccc2)C(=O)O)CC1 (stereo not given in full) . Return the value.
92

Kindly state the measured cell viability obtained for CC(C(C)N1CC(=O)NC(=O)C1)N1CC(=O)NC(=O)C1 (stereo not given) with NOMO1.
127

Record lookup: for NOMO1, what cell viability belongs to N[S+](=O)([O-])c1ccc(Nc2nc(OCC3CCCCC3)c3[nH]cnc3n2)cc1 ?
104

Which measured cell viability belongs to CC1(C)SCCN([S+](=O)([O-])c2ccc(OCC#CCO)cc2)[C@H]1C(=O)NO , tested on NOMO1?
89.7

Requested read-out cell viability, target or system NOMO1, entry Clc2cccc(Cl)c2\N=C1/NCCN1
122

What reported cell viability corresponds to O=C(/C=C/c1ccc(/C=C/C(=O)Nc2ccc(C3=NCCN3)cc2)cc1)Nc1ccc(C2=NCCN2)cc1 on NOMO1?
117

GET /values?readout=cell viability&system=NOMO1&item= NCCCC(N)(C(=O)O)C(F)F (stereo not given)
126

====

# System: NOMO1
# assay: cell viability relative to DMSO control; higher = less cytotoxic
# condition-summary: RPMI 5 mM glucose + 10% dialyzed FBS; 48 h; 0.569 µM
readout: cell viability (%)
Numeric answer only, unit % assumed.

State its cell viability on NOMO1: NC(=O)c1cccc(-c2cc(Nc3ccc(OC(F)(F)F)cc3)ncn2)c1
88.2

Notebook entry, NOMO1 assay: cell viability of C[C@]1(O)CC(C1)C2=NC(=C3[N]2C=CN=C3N)C4=CC5=C(C=C4)C=CC(=N5)C6=CC=CC=C6 (stereo unspecified) = ?
82.5

Recall the recorded cell viability for O=C(/C=C/c1ccc(/C=C/C(=O)Nc2ccc(C3=NCCN3)cc2)cc1)Nc1ccc(C2=NCCN2)cc1 with NOMO1 and state it.
113

Lab request: please report cell viability under test system NOMO1 for CCNC(=O)CCC/C=C\C[C@@H]1[C@@H](/C=C/C(O)CCc2ccccc2)[C@@H](O)C[C@@H]1O (stereo partly specified)
120

What reported cell viability corresponds to COc1ccc(CCC(=O)c2c(O)cc(O[C@@H]3O[C@H](CO)[C@@H](O)[C@H](O)[C@H]3O[C@@H]3O[C@@H](C)[C@H](O)[C@@H](O)[C@H]3O)cc2O)cc1O on NOMO1?
117

GET /values?readout=cell viability&system=NOMO1&item= CCCCc1ccc2[nH]c(NC(=O)OC)nc2c1
29.1

// lookup cell viability | system=NOMO1 | key= CC1(C)SCCN([S+](=O)([O-])c2ccc(OCC#CCO)cc2)[C@H]1C(=O)NO
84.1

Request: cell viability, test system NOMO1, entry CC(C)(N)c1ccc(-c2nc3ccccc3nc2-c2ccccc2)cc1
27.9

Requested read-out cell viability, target or system NOMO1, entry COc1cc(NCc2ccc3nc(N)nc(N)c3c2C)cc(OC)c1OC
94.5

Hi! What's the reported cell viability for C[C@@H]1CC[C@@]2(CC[C@]3(C)\C(=C/C[C@@H]4[C@@]5(C)CC[C@H](O)C(C)(C)[C@@H]5CC[C@@]34C)[C@@H]2[C@H]1C)C(O)=O on NOMO1?
121

Tell me reported cell viability for O=C(O)CCCCCC(=O)NN=C1CCCC1 , tested with NOMO1.
96.6

Give recorded cell viability with NOMO1 for the following compound: CCNC(=O)Nc1ccc(Oc2ncnc(N)c2/C=N/OC)cc1Cl
117

Write down the reported cell viability of CCc1ccc(OCc2ccccc2C(=O)Nc2ccc3nc(C)cc(N)c3c2)cc1 , test system: NOMO1.
124

Find cell viability (NOMO1) for the entry CN1C(=O)/C(=C(NC2=CC=C(I)C=C2F)\C3=C1\N=C/N(C[C@@H](O)CO)C3=O)F
37.5

Write down the reported cell viability of CN(C)CCCC1(c2ccc(F)cc2)OCc2cc(C#N)ccc21 (stereo unspecified) , test system: NOMO1.
77.4

cell viability of Oc1ccc(OCc2ccccc2)cc1 on NOMO1?
114
